# target-entity: hSTING R232 (Homo sapiens, UniProt Q86WV6, H232R)
# Construct: host or cells: 293T-Dual hSTING R232 cells
# Sequence (Q86WV6 whole entry H232R): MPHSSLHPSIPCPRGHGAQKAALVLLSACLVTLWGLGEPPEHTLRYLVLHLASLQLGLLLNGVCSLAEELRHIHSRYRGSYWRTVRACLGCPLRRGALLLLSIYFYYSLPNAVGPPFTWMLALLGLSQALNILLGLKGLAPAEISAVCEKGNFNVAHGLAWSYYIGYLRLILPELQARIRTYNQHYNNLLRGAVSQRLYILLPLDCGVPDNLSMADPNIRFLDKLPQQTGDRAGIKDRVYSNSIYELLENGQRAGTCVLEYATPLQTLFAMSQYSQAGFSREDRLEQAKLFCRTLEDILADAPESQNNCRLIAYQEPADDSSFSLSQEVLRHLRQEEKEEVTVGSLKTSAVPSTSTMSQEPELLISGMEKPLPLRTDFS
# assay-method-text: 293T-Dual hSTING R232 cells, IRF activation (Quanti-Blue)
# Format: cell-based
# test-settings: 293T-Dual hSTING R232 cell line, 24 h, OD 620 nm
molecules and their reported EC50
metric: EC50 (µM)

BP1(=O)OC[C@H]2O[C@@H](n3cnc4c(=O)[nH]c(N)nc43)[C@H](F)[C@@H]2OP(=O)(S)OCC2O[C@@H](n3cnc4c(N)ncnc43)[C@H](F)[C@@H]2O1 (single isomer, unassigned) [Compound B4]
0.34
BP1(=O)OCC2O[C@@H](n3cnc4c(N)ncnc43)[C@H](F)[C@@H]2OP(=O)(S)OC[C@H]2O[C@@H](n3cnc4c(=O)[nH]c(N)nc43)[C@H](F)[C@@H]2O1 (single isomer, unassigned) [Compound C1]
34.3
